procedure-text: Plasma PK study (IV and PO) in male Sprague-Dawley rats
Assay type: in vivo, rat
condition: male, Sprague-Dawley, rat, plasma, iv, 1 mg/kg, rat, IV 1 mg/kg, 2.0 h, animals 1-3; read-out: Individual plasma concentration
endpoint: concentration at 2 h (ng/mL)

1. COc1cc(C(=O)/C=C/c2ccc(F)cc2)cc(OC)c1OC [C16, 4-fluoro-3’,4’,5’-trimethoxychalcone] ... 14.3

====

procedure-text: Whole-blood PK study (IV, IP and PO) in male CD-1 mice
Format: in vivo, mouse
condition: male, CD-1, mouse, whole blood, po, 10 mg/kg, male CD-1 mouse, PO 10 mg/kg, average
Method: Nine male CD-1 mice (25–35 g) were obtained from Hilltop Labs. Duration of acclimation was at least two days. […] Blood samples were taken pre-dose and 5 (except for PO administration), 15, 30 min, 1, 2, 4, and 8 h after dosing. […] The sample was pipetted up and down five times, immediately frozen on dry ice and stored at -60°C to -80°C until analyzed. […] c Bioavailability determined by dividing the individual dose normalized oral AUC last by the average dose normalized intravenous AUC last value. […]
endpoint: MRT last (h)

1) COc1cc(C(=O)/C=C/c2ccc(F)cc2)cc(OC)c1OC [C16, 4-fluoro-3’,4’,5’-trimethoxychalcone] ... 1.38

====

procedure-text: Whole-blood PK study (IV, IP and PO) in male CD-1 mice
Type: in vivo, mouse
condition: male, CD-1, mouse, whole blood, iv, 1 mg/kg, mouse, IV 1 mg/kg, 2.0 h, animals 1-3; read-out: Individual blood concentration
endpoint: concentration at 2 h (ng/mL)

1. COc1cc(C(=O)/C=C/c2ccc(F)cc2)cc(OC)c1OC ... 2.28

====

procedure-text: Plasma PK study (IV and PO) in male Sprague-Dawley rats
Assay type: in vivo, rat
condition: male, Sprague-Dawley, rat, plasma, po, 10 mg/kg, male Sprague-Dawley rat, PO 10 mg/kg, vehicle DMSO, calculated for two out of three animals
endpoint: AUC(0-inf) (ng·h/mL)

1) COc1cc(C(=O)/C=C/c2ccc(F)cc2)cc(OC)c1OC ... 161

====

procedure-text: Plasma stability
Format: in vitro ADME
condition: plasma (rat, Sprague-Dawley)
endpoint: half-life at 1 μM

1) COc1cc(C(=O)/C=C/c2ccc(F)cc2)cc(OC)c1OC ... > 2 h

====

procedure-text: Whole-blood PK study (IV, IP and PO) in male CD-1 mice
Type: in vivo, mouse
condition: male, CD-1, mouse, whole blood, ip, 10 mg/kg, mouse, IP 10 mg/kg, 0.50 h, animals 4-6; read-out: Individual blood concentration
endpoint: concentration at 0.5 h (ng/mL)

1. COc1cc(C(=O)/C=C/c2ccc(F)cc2)cc(OC)c1OC ... 48.2

====

procedure-text: Whole-blood PK study (IV, IP and PO) in male CD-1 mice
Type: in vivo, mouse
condition: male, CD-1, mouse, whole blood, ip, 10 mg/kg, mouse blood, IP 10 mg/kg, individual animals 4-6
endpoint: AUC(0-inf) (ng·h/mL)

1. COc1cc(C(=O)/C=C/c2ccc(F)cc2)cc(OC)c1OC [C16, 4-fluoro-3’,4’,5’-trimethoxychalcone] ... 101

====

procedure-text: Whole-blood PK study (IV, IP and PO) in male CD-1 mice
Format: in vivo, mouse
condition: male, CD-1, mouse, whole blood, ip, 10 mg/kg, mouse, IP 10 mg/kg, 0.25 h, animals 4-6; read-out: Individual blood concentration
endpoint: concentration at 0.25 h (ng/mL)

1) COc1cc(C(=O)/C=C/c2ccc(F)cc2)cc(OC)c1OC [C16, 4-fluoro-3’,4’,5’-trimethoxychalcone] ... 90.3
